System Name: cyclin D1/cdk 4 enzyme (Homo sapiens)
Construct: made in house; host or cells: Sf9 insect cells, recombinant baculovirus
Sequence (P11802 whole entry, species assumed): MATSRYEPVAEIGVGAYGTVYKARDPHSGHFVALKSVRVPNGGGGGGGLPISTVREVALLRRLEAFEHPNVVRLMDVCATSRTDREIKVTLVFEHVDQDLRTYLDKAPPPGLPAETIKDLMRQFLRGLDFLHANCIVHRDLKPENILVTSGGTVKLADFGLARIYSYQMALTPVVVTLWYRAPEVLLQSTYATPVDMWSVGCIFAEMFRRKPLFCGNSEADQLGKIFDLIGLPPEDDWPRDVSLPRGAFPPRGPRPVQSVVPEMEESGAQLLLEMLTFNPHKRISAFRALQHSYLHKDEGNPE
Sequence (P24385 whole entry partner, species assumed): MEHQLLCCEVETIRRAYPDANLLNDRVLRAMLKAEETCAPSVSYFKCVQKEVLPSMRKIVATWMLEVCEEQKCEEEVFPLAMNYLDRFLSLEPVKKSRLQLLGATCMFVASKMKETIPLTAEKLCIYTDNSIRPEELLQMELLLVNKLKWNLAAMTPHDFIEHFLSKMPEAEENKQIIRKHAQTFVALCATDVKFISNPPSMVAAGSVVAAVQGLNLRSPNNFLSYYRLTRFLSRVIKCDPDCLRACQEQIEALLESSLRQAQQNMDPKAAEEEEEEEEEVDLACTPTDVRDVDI
Method Notes: CDK4 ELISA kinase assay (phospho-Rb ser 795 detection)
Type: biochemical
Experimental Context: In Vitro Enzyme Assay, cyclin D1/cdk 4, read-out: CDK4 IC50
Observation Type: IC50 (nM)

The examples below pair each entry with its known result.
{"columns": ["Molecule", "Observation Type", "Assay Result"],
 "data": [
  ["NS(=O)(=O)c1ccc(CNC=C2C(=O)NC(=O)c3ccc(-c4cccc(Cl)c4)cc32)cc1", "IC50", 2500],
  ["O=C1NC(=O)c2ccc(-c3ccc(-c4ccccc4)cc3)cc2C1=CNCc1ccc(O)c(O)c1", "IC50", 9740],
  ["COc1ccc(-c2ccc3c(c2)C(=CNCc2ccc(O)c(O)c2)C(=O)NC3=O)cc1", "IC50", 60],
  ["CN1CCN(c2ccc(NC=C3C(=O)NC(=O)c4ccc(-c5cccc(N)c5)cc43)cc2)CC1", "IC50", 2760],
  ["CN(C)Cc1ccc(C=Cc2ccc3c(c2)C(=CNCc2ccc(O)c(O)c2)C(=O)NC3=O)cc1", "IC50", 840]
]}

I. Cc1ccc(-c2ccc3c(c2)C(=CNCc2ccc(O)c(O)c2)C(=O)NC3=O)cc1
II. O=C1NC(=O)c2ccccc2C1=CNc1ccc(O)c(C(=O)O)c1
III. O=C1NC(=O)c2ccc(I)cc2/C1=C/NCc1ccn(-c2ccccc2)c(=O)c1 [Example 517]
// query In this exercise, place the 3 molecules in ascending sequence of their recorded IC50. I would appreciate it if you listed the labels in the requested order.
// result III, I, II
